# System: human PDE7B (Homo sapiens, UniProt Q9NP56)
# Construct: full-length human PDE1A (NP_001003683.1), PDE1C (NP_005011.1), PDE5A (NP_001074.2), PDE7B (NP_061818.1); HIS (N); made in house; host or cells: Sf9 (baculovirus, pFastBac1)
# Sequence (Q9NP56 whole entry): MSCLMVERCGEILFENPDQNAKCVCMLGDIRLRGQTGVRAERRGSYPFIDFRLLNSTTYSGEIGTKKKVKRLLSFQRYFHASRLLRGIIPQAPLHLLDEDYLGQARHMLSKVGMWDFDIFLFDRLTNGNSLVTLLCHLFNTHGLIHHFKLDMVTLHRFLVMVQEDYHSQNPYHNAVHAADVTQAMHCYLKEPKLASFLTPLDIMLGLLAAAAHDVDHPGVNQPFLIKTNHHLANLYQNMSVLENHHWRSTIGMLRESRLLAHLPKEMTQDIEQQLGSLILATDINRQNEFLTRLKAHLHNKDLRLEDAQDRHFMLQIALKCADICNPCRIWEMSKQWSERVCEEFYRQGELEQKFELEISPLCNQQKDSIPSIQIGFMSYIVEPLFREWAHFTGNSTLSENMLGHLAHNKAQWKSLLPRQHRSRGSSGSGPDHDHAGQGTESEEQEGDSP
# Test Details: PDE enzyme assay using [3H]cAMP as substrate (SPA), PDE7B
# Type: biochemical
# Experimental Setup: human PDE7B 0.5 nM, [3H]cAMP 47 nM
Observation Type: IC50 (nM)

CCCCn1c(=O)c2nnc(C3(C)CC3)n2c2ncccc21 [Example 1] ... 4170

----------
# System: human PDE5A (Homo sapiens)
# Construct: full-length human PDE1A (NP_001003683.1), PDE1C (NP_005011.1), PDE5A (NP_001074.2); HIS (N); made in house; host or cells: Sf9 (baculovirus, pFastBac1)
# Test Details: PDE enzyme assay using [3H]cGMP as substrate (SPA), PDE5A
# Type: biochemical
# Experimental Setup: human PDE5A 0.002 nM, [3H]cGMP 80 nM
Observation Type: IC50 (nM)

CCCCn1c(=O)c2nnc(C3(C)CC3)n2c2ncccc21 [Example 1] ... 3130

----------
# System: human PDE6A/6B (Homo sapiens, UniProt P16499+P35913)
# Construct: encoding full-length human PDE6A (NP_000431.2) and PDE6B (AAH00249.1); HIS (N); Flag (N); made in house; host or cells: Sf9 (baculovirus, pFastBacDual)
# Sequence (P16499 whole entry): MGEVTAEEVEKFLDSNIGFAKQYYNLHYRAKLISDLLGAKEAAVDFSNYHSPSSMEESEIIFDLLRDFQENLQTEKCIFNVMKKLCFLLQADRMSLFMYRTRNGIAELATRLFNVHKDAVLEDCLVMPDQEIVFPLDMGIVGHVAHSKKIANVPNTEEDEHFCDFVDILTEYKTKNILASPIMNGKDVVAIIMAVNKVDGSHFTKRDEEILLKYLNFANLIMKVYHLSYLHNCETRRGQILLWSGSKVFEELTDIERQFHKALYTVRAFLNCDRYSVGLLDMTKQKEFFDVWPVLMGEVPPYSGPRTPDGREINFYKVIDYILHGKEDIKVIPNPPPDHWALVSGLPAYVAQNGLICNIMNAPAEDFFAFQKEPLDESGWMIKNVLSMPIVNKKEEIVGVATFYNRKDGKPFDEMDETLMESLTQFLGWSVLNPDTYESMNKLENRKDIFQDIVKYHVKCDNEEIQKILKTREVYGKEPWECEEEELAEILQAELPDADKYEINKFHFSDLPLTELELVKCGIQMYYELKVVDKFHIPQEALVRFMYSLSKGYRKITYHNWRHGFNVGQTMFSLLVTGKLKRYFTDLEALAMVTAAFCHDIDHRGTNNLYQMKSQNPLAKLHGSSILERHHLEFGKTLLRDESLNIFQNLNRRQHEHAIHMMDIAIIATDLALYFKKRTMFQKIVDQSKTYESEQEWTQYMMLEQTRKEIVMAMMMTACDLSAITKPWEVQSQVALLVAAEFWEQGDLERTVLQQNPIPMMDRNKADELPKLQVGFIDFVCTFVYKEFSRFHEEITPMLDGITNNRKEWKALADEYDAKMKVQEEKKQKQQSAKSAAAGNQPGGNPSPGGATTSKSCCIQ
# Sequence (P35913 1-853 isoform P35913-2): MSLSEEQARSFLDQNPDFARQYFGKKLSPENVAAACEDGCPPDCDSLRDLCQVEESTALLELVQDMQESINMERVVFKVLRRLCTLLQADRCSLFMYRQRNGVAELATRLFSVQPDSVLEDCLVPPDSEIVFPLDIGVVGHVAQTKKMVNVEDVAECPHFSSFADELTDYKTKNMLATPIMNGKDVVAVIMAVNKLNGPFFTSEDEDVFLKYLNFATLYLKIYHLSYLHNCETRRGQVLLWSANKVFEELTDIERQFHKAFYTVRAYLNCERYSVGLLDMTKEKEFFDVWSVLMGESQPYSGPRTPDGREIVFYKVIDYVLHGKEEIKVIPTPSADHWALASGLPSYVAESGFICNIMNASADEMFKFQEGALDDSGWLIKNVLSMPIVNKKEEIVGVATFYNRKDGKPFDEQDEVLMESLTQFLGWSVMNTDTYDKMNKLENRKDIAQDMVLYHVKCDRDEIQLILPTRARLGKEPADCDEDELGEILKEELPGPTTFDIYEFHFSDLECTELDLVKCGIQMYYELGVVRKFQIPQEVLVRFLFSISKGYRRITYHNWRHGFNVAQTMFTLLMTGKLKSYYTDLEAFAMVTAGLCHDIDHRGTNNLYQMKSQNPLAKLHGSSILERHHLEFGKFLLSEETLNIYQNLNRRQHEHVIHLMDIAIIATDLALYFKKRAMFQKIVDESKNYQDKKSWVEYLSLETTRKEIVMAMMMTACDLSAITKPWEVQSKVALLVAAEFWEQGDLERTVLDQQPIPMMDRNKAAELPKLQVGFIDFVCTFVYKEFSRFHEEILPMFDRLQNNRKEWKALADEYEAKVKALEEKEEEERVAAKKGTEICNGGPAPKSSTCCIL
# Test Details: PDE enzyme assay using [3H]cGMP as substrate (SPA), PDE6A/6B dimer
# Type: biochemical
# Experimental Setup: human PDE6AB dimer 5 nM, [3H]cGMP 80 nM; read-out: IC50 (nM) PDE 6AB
Observation Type: IC50

CCCCn1c(=O)c2nnc(C3(C)CC3)n2c2ncccc21 ... 2460 nM

----------
# System: human PDE11A (Homo sapiens, UniProt Q9HCR9)
# Construct: full-length human PDE8A (NP_002596.1) and PDE11A (AAI12394.1); Flag (N); made in house; host or cells: Sf9 (baculovirus, pFastBac1)
# Sequence (Q9HCR9 whole entry): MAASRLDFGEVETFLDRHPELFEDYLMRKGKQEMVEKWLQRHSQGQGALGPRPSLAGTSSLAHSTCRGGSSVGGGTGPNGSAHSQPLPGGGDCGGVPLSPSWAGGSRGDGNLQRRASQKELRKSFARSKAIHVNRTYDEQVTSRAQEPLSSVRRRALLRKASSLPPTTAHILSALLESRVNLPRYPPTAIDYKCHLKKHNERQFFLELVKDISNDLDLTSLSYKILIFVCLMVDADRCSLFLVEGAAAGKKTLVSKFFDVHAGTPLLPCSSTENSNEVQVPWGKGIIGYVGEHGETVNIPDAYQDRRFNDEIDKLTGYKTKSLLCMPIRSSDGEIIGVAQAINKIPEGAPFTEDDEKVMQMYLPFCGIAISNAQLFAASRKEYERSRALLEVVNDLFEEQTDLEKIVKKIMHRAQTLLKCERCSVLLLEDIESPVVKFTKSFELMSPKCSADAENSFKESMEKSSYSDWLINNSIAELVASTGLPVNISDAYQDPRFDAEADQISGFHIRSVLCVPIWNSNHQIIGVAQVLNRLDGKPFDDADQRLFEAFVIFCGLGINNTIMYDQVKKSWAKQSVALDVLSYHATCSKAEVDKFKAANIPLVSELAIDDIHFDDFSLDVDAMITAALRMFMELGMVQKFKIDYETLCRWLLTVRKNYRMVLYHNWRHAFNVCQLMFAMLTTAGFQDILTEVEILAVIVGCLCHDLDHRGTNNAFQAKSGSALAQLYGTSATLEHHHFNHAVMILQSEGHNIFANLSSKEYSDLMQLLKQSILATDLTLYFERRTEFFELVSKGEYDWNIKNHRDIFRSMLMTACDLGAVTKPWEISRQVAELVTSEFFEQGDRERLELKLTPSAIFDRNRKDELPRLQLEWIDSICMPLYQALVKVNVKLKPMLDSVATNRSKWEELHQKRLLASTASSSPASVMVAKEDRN
# Test Details: PDE enzyme assay using [3H]cGMP as substrate (SPA), PDE11A
# Assay type: biochemical
# Experimental Setup: human PDE11A 0.03 nM, [3H]cGMP 80 nM
Observation Type: IC50

CCCCn1c(=O)c2nnc(C3(C)CC3)n2c2ncccc21 [Example 1] ... 389 nM

----------
# System: human PDE8A (Homo sapiens, UniProt O60658)
# Construct: encoding full-length human PDE8A (NP_002596.1); Flag (N); made in house; host or cells: Sf9 (baculovirus, pFastBac1)
# Sequence (O60658 whole entry): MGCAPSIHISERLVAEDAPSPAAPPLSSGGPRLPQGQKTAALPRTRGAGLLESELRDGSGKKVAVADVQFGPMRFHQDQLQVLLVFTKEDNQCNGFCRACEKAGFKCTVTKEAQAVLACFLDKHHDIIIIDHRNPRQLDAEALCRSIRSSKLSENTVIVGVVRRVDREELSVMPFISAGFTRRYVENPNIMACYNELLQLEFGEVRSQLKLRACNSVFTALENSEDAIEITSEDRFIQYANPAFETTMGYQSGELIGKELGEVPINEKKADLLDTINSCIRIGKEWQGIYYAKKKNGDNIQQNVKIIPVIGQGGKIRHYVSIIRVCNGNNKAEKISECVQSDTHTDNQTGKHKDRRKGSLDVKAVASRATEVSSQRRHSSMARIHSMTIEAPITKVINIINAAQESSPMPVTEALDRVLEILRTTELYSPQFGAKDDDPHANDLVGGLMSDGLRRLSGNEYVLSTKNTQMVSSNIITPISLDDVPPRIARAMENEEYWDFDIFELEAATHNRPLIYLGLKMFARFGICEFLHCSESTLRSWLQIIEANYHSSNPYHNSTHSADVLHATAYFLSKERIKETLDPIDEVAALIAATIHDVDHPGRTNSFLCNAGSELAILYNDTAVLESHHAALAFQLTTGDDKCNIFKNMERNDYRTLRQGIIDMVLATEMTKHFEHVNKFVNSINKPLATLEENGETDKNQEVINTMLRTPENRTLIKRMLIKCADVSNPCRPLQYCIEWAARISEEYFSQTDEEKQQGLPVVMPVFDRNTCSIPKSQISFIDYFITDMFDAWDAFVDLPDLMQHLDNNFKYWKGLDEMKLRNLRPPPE
# Test Details: PDE enzyme assay using [3H]cAMP as substrate (SPA), PDE8A
# Format: biochemical
# Experimental Setup: human PDE8A 0.06 nM, [3H]cAMP 47 nM
Observation Type: IC50

CCCCn1c(=O)c2nnc(C3(C)CC3)n2c2ncccc21 ... > 10000 nM

----------
# System: human PDE1B (Homo sapiens)
# Construct: encoding full-length human PDE1B (NP_000915.1); HIS (C); made in house; host or cells: Sf9 (pIEX4)
# Test Details: Ca2+-calmodulin dependent PDE enzyme assay (SPA), PDE1B
# Assay type: biochemical
# Experimental Setup: human PDE1B 0.074 nM, [3H]cAMP 47 nM, calmodulin 6 U/ml; read-out: IC50 (nM) PDE 1B
Observation Type: IC50 (nM)

CCCCn1c(=O)c2nnc(C3(C)CC3)n2c2ncccc21 ... 16.3
